The following compounds are listed with their measured TGI values.
- System: SW-620 colon
- test-description: NCI tumour cell line growth inhibition, 48 h
Entry rule: numbers only, all in µM.

Example results:
compound	target	TGI / µM
Cn1c2ccc(F)cc2c2ccc3c(c21)C(=O)C=CC3=O	SW-620 colon	8.54
C[C@@H](N)COc1ccc(-c2cnc3ccc(N[C@H](C)c4cccc(F)c4)nn23)cc1	SW-620 colon	3.44

# lookup: TGI of CN1CCN(Cc2ccc(NC(=O)c3cncc(C#Cc4c(N)ncc5ccc(C#N)cc45)c3)cc2C(F)(F)F)CC1
1.53

Which value of TGI has been reported for CCOP(=O)(CCCC(O)CNc1nc(N)nc(Cl)c1N=Nc1ccc(Cl)cc1)OCC (stereo not drawn) in the records?
36.5

Field request: TGI | item: Oc1cc(N2CC2)c(O)cc1N1CC1
7.37

----------
- System: SF-268 CNS
- test-description: NCI tumour cell line growth inhibition, 48 h
reported-endpoint: TGI

Consider the worked cases shown below.
compound	TGI
CN(C)Cc1c(O)ccc2c1c1c(n2C)C(=O)c2ccccc2C1=O	> 100 µM
CC(C)OP(=S)(NC(=S)c1ccccc1)OC(C)C	> 100 µM
c1ccc2c(c1)SC(=C1Sc3ccccc3S1)S2	> 100 µM
NC1N=Nc2ccccc21 (configuration not stated)	> 100 µM
Cn1cnc(N2CCCC2)c(C#N)c1=S	> 100 µM

Fill blank: measured TGI of the compound Cn1cc(C2=C(c3c4n(c5ccccc35)CCNC4)C(=O)NC2=O)c2ccccc21 is ____.
> 25 µM

Given CCN1CCC(CC(=O)Nc2n[nH]c3nnc(-c4cccc(F)c4F)cc23)CC1 , state its recorded TGI.
> 25 µM

Entry under review: COC(=O)Oc1nn(C(=O)OC)c(=O)c2ccccc12 . Reported TGI?
> 100 µM

----------
This listing pairs compounds with measured TGI.
- Test system: TK-10 renal
- test-description: NCI tumour cell line growth inhibition, 48 h
The answer is to be given in µM; state only the numeric part.

Solved entries (count: 5):
compound	target	TGI / µM
CN1CC=C(c2cc(NC(=O)Nc3ccc(Oc4ccnc(NC(=O)C5CC5)c4)c(F)c3)cc(C(F)(F)F)c2)CC1	TK-10 renal	3.91
CCOP(=O)(CCCC(O)CNc1nc(N)nc(Cl)c1N=Nc1ccc(Cl)cc1)OCC (stereo unspecified)	TK-10 renal	13.6
Cc1ccc(-c2nc3nc(-c4ccc(F)cc4)nc(N4CCNCC4)c3o2)cc1	TK-10 renal	6.38
COc1ccc2nc3c([N+](=O)[O-])ccc(NCCN(C)C)c3c(N)c2c1	TK-10 renal	3.09
Cc1ccc([Se](=C(C(=O)c2ccccc2)C(=O)c2ccccc2)c2ccc(C)cc2)cc1	TK-10 renal	94.6

Need TGI of CC(=O)OCC12CN(C#N)C3C4COC(CC41)C1(C(=O)N(C)c4ccccc41)C32 (stereo unspecified) , thanks.
66.5

Would you mind telling me what TGI value was observed for Oc1cc(N2CC2)c(O)cc1N1CC1 ?
9.35

Which value of TGI has been reported for CCCCCCCCCCNCCSSCc1ccc(Cl)cc1 in the records?
4.04

Which TGI value is on record for COc1cc2c3c(n(CCCN4CCNCC4)c(=O)c2cc1OC)-c1cc2c(cc1C3=O)OCO2 ?
2.66

// TGI lookup, key: Clc1ccc(CCNC2(c3cc4ccccc4s3)CCCCC2)cc1Cl
65.9

----------
# Lookup of reported GI50 keyed by entry
- System: NCI/ADR-RES ovarian
- test-description: NCI tumour cell line growth inhibition, 48 h

mol	GI50
CNC(=O)c1nn(C)c2c1C(C)(C)Cc1cnc(Nc3cccc(N4CCN(C)CC4)c3)nc1-2	2100 nM
CN1CCN(Cc2ccc(NC(=O)c3cncc(C#Cc4c(N)ncc5ccc(C#N)cc45)c3)cc2C(F)(F)F)CC1	1110 nM
CC1(C)CC(=O)C=C(/C=C/Sc2c(Cl)c(Cl)nc(Cl)c2Cl)C1	11300 nM
Oc1cc(N2CC2)c(O)cc1N1CC1	961 nM

# GI50 lookup, item CC(c1cc(Cl)ccc1O)c1cc(Cl)ccc1O
3150 nM

# GI50 lookup, item COC(=O)c1cc(NC(=O)c2cc(NC(=O)c3cc([N+](=O)[O-])n(C)c3)cn2C)cn1C
> 100000 nM

----------
- Tested on: SK-MEL-28 melanoma
- test-description: NCI tumour cell line growth inhibition, 48 h
reported-endpoint: TGI (µM)
Give the value, in units of µM, as a plain number.

mol	experimental-value
Cc1ccc(-c2nc3nc(-c4ccc(F)cc4)nc(N4CCNCC4)c3o2)cc1	28.7

// returns reported TGI for input Nn1c(Nc2ccc(S(N)(=O)=O)cc2)nnc(/C=C/c2c(O)ccc3ccccc23)c1=O
53.5

----------
- Test system: NCI-H522 lung
- test-description: NCI tumour cell line growth inhibition, 48 h; in the data active = GI50 below about 0.43 µM; inactive = the rest
Pick one: TRUE = active, FALSE = inactive

Record excerpt, results attached:
compound	target	assigned-category
OCc1ccc(-c2csc(-c3ccc(CO)o3)c2)o1	NCI-H522 lung	FALSE
COC(=O)c1ccc2nc(-c3cc4ccccc4n3C)n(CCCCOc3cc4c(cc3OC)C(=O)N3CCC[C@H]3C=N4)c2c1	NCI-H522 lung	TRUE
CCn1c(-c2nonc2N)nc2c(C#CC(C)(C)O)ncc(OC3CCNCC3)c21	NCI-H522 lung	FALSE
COc1ccc(-c2cc(/C=C3\C(=O)Nc4cc(Cl)ccc43)[nH]n2)cc1	NCI-H522 lung	FALSE
O=C1Nc2ccccc2/C1=C\c1c(-c2ccccc2)nc2sccn12	NCI-H522 lung	FALSE

Which result was noted for this compound in the test: Cc1ccc(-c2nc3nc(-c4ccc(F)cc4)nc(N4CCNCC4)c3o2)cc1
FALSE

Identify the outcome logged in this assay for the compound shown: Cn1cc(C2=C(c3c4n(c5ccccc35)CCNC4)C(=O)NC2=O)c2ccccc21
FALSE

Write down the call the test reported for this compound. Item: O=C(Cn1c(C(=O)c2ccc(Cl)cc2)nc(-c2ccc(Cl)cc2)c1-c1ccc(Cl)cc1)c1ccccc1
FALSE

Test call, this compound: CCN1CCC(CC(=O)Nc2n[nH]c3nnc(-c4cccc(F)c4F)cc23)CC1
FALSE

What did this assay record as the result for C[C@@H](N)COc1ccc(-c2cnc3ccc(N[C@H](C)c4cccc(F)c4)nn23)cc1 ?
FALSE

Hi, do you know how COc1cc(-c2cc3ncccc3c3nc(OCCN(C)C)c4cccnc4c23)cc(OC)c1OC came out in this test?
FALSE

Tell me the assay call for CC1(C)CC(=O)C=C(/C=C/Sc2c(Cl)c(Cl)nc(Cl)c2Cl)C1 please.
FALSE

Lab log entry: COc1cc(OC)cc(Oc2cnc3cc(N)cc(N)c3n2)c1 — outcome as called in the assay?
FALSE

Field: outcome | Entry: CN1CCN(C(=O)[C@@]2(C)CC[C@]3(C)CC[C@]4(C)C(=CC[C@@H]5[C@@]6(C)CCC(=O)NC(C)(C)[C@@H]6CC[C@]54C)[C@@H]3C2)CC1
FALSE

So what was the verdict on O=C(/C=C/C12c3ccccc3C(c3ccccc31)C1C(=O)N(c3ccc(Cl)cc3)C(=O)C12)c1ccccn1 (stereo unspecified) in this test?
TRUE

For CN1CCN(Cc2ccc(NC(=O)c3cncc(C#Cc4c(N)ncc5ccc(C#N)cc45)c3)cc2C(F)(F)F)CC1 , what call appears in the results of this test?
FALSE

----------
- Test system: KM12 colon
- test-description: NCI tumour cell line growth inhibition, 48 h; in the data active = GI50 below about 0.43 µM; inactive = the rest
I would appreciate it if you answered using one of these outcomes: true (active), false (inactive)

molecule	target	assigned-category
O=C(c1ccccc1)C(Cl)C(Cl)c1ccccc1 (stereo not given)	KM12 colon	false
CCN1CCC(CC(=O)Nc2n[nH]c3nnc(-c4cccc(F)c4F)cc23)CC1	KM12 colon	false
Oc1cc(N2CC2)c(O)cc1N1CC1	KM12 colon	false

So what was the verdict on Cn1cc(C2=C(c3c4n(c5ccccc35)CCNC4)C(=O)NC2=O)c2ccccc21 in this test?
false

What is the recorded call for this molecule in the test? COC(=O)c1ccc2nc(-c3cc4ccccc4n3C)n(CCCCOc3cc4c(cc3OC)C(=O)N3CCC[C@H]3C=N4)c2c1
true

What outcome does the record of this test show for OCc1ccc(-c2csc(-c3ccc(CO)o3)c2)o1 ?
false

Hi, sorry to bother you, what did the test record for O=[N+]([O-])c1ccc(/C=C/c2nc3ccc(Cl)cc3[nH]2)cc1 ?
false

In this assay, the call recorded for Oc1c(C(Nc2ccccn2)c2cccc(Oc3ccccc3)c2)ccc2cccnc12 (stereo not given) was what?
false

Can you look up the reported call for C/C(=N\NC(=S)N1CCN(c2ccccn2)CC1)c1ccccn1 for me?
true

Which outcome was assigned to COc1cc(-c2cc3ncccc3c3nc(OCCN(C)C)c4cccnc4c23)cc(OC)c1OC in this test?
false
